measurement-kind: melting point

Value lookup for melting point; key = CNC(=O)C1=CC(CF)(CF)Oc2ccc(Br)cc21 187 to 188 °C

====

Measured melting point values are reported for all entries that follow.

CCCCCCCCOCC(O)COc1ccc(-n2nc3ccccc3n2)c(O)c1 (stereo not given) = 51 to 55 °C
CC(C)CN1C(=O)[C@H](CC(=O)O)O[C@@H](c2ccccc2Cl)c2cc(Cl)ccc21 = 183 to 186 °C
COC(=O)c1c(O)cccc1OCCCCNC(=O)CCc1ccc(N2CC(=O)NS2(=O)=O)c(O)c1 = 85 to 90 °C

Can you share its melting point? I mean this compound: CCn1cc(C(=O)O)c(=O)c2cc(F)c(-c3csc(CN)n3)c(NC)c21 194 to 195 °C

Request the reported melting point associated with CN(C)CCCOc1ccc(-c2nn(CC(=O)O)c3ncccc23)cc1 221 to 223 °C

Given COc1ccc(C(=O)N2CCCCC2)c(NC(=O)N[C@@H](Cc2ccc(NC(=O)c3c(Cl)cccc3Cl)cc2)C(=O)O)c1 , state its recorded melting point. 176 °C

Entry N#CNC(=NCCN1CCC(C(=O)c2ccc(F)cc2)CC1)Oc1ccccc1 has what melting point? 134 to 136 °C

Give the measured melting point of CN(C(CCn1c(=O)cc(C(F)(F)F)[nH]c1=O)C(=O)NO)S(=O)(=O)c1ccc(Oc2ccc(F)cc2)cc1 (stereo not given) . 163 to 164 °C

Returns the measured melting point for the input compound. Input: CC(C)C1CC1(O)C(=O)O (stereo not given) 135 to 138 °C

Requested field: melting point. Item: COc1cc(C)nc(-n2cncn2)n1 142 to 143 °C
